target: JNK3 (Homo sapiens)
Sequence (P53779 whole entry, species assumed): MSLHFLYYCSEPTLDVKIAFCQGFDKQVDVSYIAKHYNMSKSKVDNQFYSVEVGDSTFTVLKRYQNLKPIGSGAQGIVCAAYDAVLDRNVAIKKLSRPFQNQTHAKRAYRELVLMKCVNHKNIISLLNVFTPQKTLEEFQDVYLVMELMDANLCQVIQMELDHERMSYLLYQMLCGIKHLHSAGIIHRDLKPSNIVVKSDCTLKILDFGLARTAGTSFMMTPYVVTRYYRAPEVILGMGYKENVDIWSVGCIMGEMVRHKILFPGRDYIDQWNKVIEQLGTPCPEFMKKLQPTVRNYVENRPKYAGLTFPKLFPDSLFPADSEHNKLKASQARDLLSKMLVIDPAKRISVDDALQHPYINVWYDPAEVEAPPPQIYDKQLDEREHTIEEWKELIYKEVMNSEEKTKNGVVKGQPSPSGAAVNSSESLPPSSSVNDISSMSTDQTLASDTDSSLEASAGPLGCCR
pIC50: −log10 of the molar value.
readout.type: pIC50

Here's what some known entries look like.
{"smiles.input": "CN1CCC(c2nc(-c3c[nH]c4ncc([C@H]5CC[C@H](N6CCN(C)CC6)CC5)cc34)cs2)CC1", "measurement.target": "JNK3 (Homo sapiens)", "reported": 6.64}
{"smiles.input": "c1csc(-c2c[nH]c3ncc(C4CCCCC4)cc23)n1", "measurement.target": "JNK3 (Homo sapiens)", "reported": 6.49}
{"smiles.input": "CN1CCN(C(=O)c2nc(-c3c[nH]c4ncc([C@H]5CC[C@@H](N6CCOCC6)CC5)cc34)cs2)CC1", "measurement.target": "JNK3 (Homo sapiens)", "reported": 6.02}
{"smiles.input": "c1csc(-c2c[nH]c3ncc([C@H]4CC[C@H](N5CCCOCC5)CC4)cc23)n1", "measurement.target": "JNK3 (Homo sapiens)", "reported": 5.98}

a = CN1CCC(c2nc(-c3c[nH]c4ncc([C@H]5CC[C@H](N6CCCC6)CC5)cc34)cs2)CC1
b = Cc1cnc(-c2c[nH]c3ncc([C@H]4CC[C@H](N5CCCOCC5)CC4)cc23)s1
c = CN1CCN([C@H]2CC[C@H](c3cnc4[nH]cc(-c5nc(C(F)(F)F)cs5)c4c3)CC2)CC1
Order the entries by their reported pIC50, beginning at the minimum. Output spec: a listing of the labels in the requested order.
b, a, c
(b: 5.84, a: 6.10, c: 6.57)
